# method_summary: qHTS Assay for Lipid Storage Modulators (AID 1519)
# condition_parameters: Drosophila S3 cells, BODIPY lipid droplet/cell ratio, laser cytometry; measured here: lipid channel max response; cells loaded with oleic acid
Inconclusive results are not listed.
parameter: max response (%)

compound_structure	parameter	unit_name	value
CCNc1ncc2nc(C)c(=O)n(Cc3ccc(F)cc3)c2n1	max response	%	24.2
COc1cccc(Cn2c(=O)c(C)nc3cnc(N4CCN(C)CC4)nc32)c1	max response	%	7.13
CC(=O)N1CCC[C@@]2(CCN(Cc3cc(C(F)(F)F)cc(C(F)(F)F)c3)C2)C1	max response	%	18.9
N=C1Sc2ccccc2C2=NCCCN12	max response	%	-8.77
COc1ccc(NC(=O)N2CCC3(CC2)CCN(C(=O)c2cnccn2)CC3)cc1	max response	%	18.9
COCCNc1cc(-c2ccccc2C(F)(F)F)ncn1	max response	%	25.3
CN(C)c1ncc2nc(-c3ccccc3)c(=O)n(Cc3ccc(F)cc3)c2n1	max response	%	4.69
COCCn1c(=O)c(-c2cccc(C#N)c2)nc2cnc(Oc3ccccc3)nc21	max response	%	-8.56
COc1ccc(CNc2cc(-c3cccc(C#N)c3)ncn2)c(OC)c1	max response	%	23.9
O=c1c(-c2ccc(F)cc2)nc2cnc(Oc3cccc(Cl)c3)nc2n1C1CC1	max response	%	-12.9
O=c1c(-c2ccccc2)nc2cnc(N3CCOCC3)nc2n1C1CC1	max response	%	-1.06
O=c1c(-c2ccc(F)cc2)nc2cnc(Oc3ccccc3)nc2n1Cc1cccs1	max response	%	-29.7
